System: SK-MEL-5
Assay: NCI tumour cell line growth inhibition, 48 h
Active and inactive are the calls of the source. No stated cut-off is given here; in the data, active = GI50 up to about 1.1 µM and inactive = higher.
readoutType: GI50

1) Cn1c(N)[n+](C(=O)OCc2ccccc2)c(=O)c2c1ncn2C(=O)OCc1ccccc1 | > 100 µM (inactive)
2) CN1CCN(C(=O)c2cn(Cc3cncn3Cc3ccc4c(c3)OCO4)cc2-c2cccc3ccccc23)CC1 | 9.04 µM (inactive)
3) NS(=O)(=O)C1CCCCC1C(=O)NNC(=O)C(=O)Nc1nnc(S)[nH]1 (stereo unspecified) | > 100 µM (inactive)
4) COC(=O)[C@](NC(=O)OCc1ccccc1)([C@@H](C)[S+]([O-])c1ccc(C)cc1)C(F)(F)F (stereo partly specified) | 16.4 µM (inactive)
5) CCC1(c2ccc(N3C(=O)c4cccc5cc([N+](=O)[O-])cc(c45)C3=O)cc2)CCC(=O)NC1=O (stereo unspecified) | 90.4 µM (inactive)
6) O=c1[nH]cc(/N=C/c2cc(Cl)ccc2O)c(=O)[nH]1 | 20.1 µM (inactive)
7) CCCCc1ccc(Nc2cc(=O)n(C)c(=O)[nH]2)cc1 | > 100 µM (inactive)
8) Cc1cc(C(C)(C)C)cc(CNC2CCCCC2)c1O | 17 µM (inactive)
9) CC(CCCOC(c1ccccc1)(c1ccccc1)c1ccccc1)OC(=O)Nc1cc([N+](=O)[O-])cc([N+](=O)[O-])c1 (stereo unspecified) | 22.8 µM (inactive)
10) OC12CCC3(O)c4ccccc4C3C1c1ccccc12 (stereo unspecified) | > 100 µM (inactive)
11) COc1ccc2c(c1)NC1(CCN(CCCC(=O)c3ccc(F)cc3)CC1)N=N2 | 12.6 µM (inactive)
12) CC(=O)Oc1ccc2c(c1)CC[C@@H]1C2CC[C@]2(C)C(=O)NC(=O)CC12 (stereo partly specified) | > 100 µM (inactive)
13) Nc1c(-c2nc3ccccc3o2)sc(=S)n1-c1ccc(Cl)cc1 | 17.2 µM (inactive)
14) Nc1ccc(CCSSCCc2ccc(N)cc2)cc1 | 19.8 µM (inactive)
15) Cc1ccc(S(=O)ON2CCC(C(=O)O)(c3ccccc3)CC2)cc1 (stereo unspecified) | > 100 µM (inactive)
16) CC(=O)OC1C2CCC1C1C2N=NN1c1ccc([N+](=O)[O-])cc1 (stereo unspecified) | > 100 µM (inactive)
17) CC(C)NC(=O)OCc1c2c(n(C)c1COC(=O)NC(C)C)-c1ccccc1CC2 | 14.4 µM (inactive)
18) CC1(C)CCCC(C)(C2CCC3(C)C2C(O)CC2C4(C)CCC(O)C(C)(C)C4CCC23C)O1 (stereo unspecified) | 47.8 µM (inactive)
19) Cc1ccsc1/C=N/NC1=NCCN1 | > 100 µM (inactive)
20) CC(=O)/C=C1\Nc2ccccc2N\C1=C/C(C)=O | 16.8 µM (inactive)
21) CCOC(=O)C(=O)NNc1nc2c(s1)C(=O)c1ccccc1C2=O | 1.86 µM (inactive)
